Measured Endpoint: pKi
Scale: negative log10 of molar concentration, which is what pKi denotes.

Fetch value of pKi on UniProt:P41144 for NC(=O)c1cccc(C2C[C@H]3CC[C@H](C2)N3CCCc2ccccc2)c1 (relative stereo; 24a) .
Sequence (P41144 whole entry): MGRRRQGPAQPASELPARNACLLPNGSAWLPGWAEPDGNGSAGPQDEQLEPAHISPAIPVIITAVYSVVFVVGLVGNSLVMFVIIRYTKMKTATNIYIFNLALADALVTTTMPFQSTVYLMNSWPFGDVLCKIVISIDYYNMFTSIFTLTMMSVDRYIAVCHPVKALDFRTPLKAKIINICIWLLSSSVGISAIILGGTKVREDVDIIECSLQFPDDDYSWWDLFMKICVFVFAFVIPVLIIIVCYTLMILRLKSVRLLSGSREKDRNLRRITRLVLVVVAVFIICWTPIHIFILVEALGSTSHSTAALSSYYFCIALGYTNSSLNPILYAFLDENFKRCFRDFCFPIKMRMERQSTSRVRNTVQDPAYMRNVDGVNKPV
9.80

Fetch value of pKi on UniProt:P41144 for Oc1cccc(C2C[C@H]3CC[C@H](C2)N3CCCc2ccccc2)c1 (relative stereo; 12b) .
8.10

Fetch value of pKi on UniProt:P41144 for Oc1cccc(C2C[C@H]3CC[C@H](C2)N3CCCOc2ccccc2)c1 (relative stereo; 19b) .
7.70

Fetch value of pKi on UniProt:P41144 for CC(C)(C)c1ccc(CN2[C@@H]3CC[C@@H]2CC(c2cccc(O)c2)C3)cc1 (relative stereo; 20b) .
8.50

Fetch value of pKi on UniProt:P41144 for NC(=O)c1cccc(C2C[C@H]3CC[C@H](C2)N3CCCOc2ccccc2)c1 (relative stereo) .
9.10

Fetch value of pKi on UniProt:P41144 for CC(C)(C)c1ccc(CN2[C@@H]3CC[C@@H]2CC(c2cccc(C(N)=O)c2)C3)cc1 (relative stereo; 28a) .
10.00

Fetch value of pKi on UniProt:P41144 for Oc1cccc(C2C[C@H]3CC[C@H](C2)N3CCCOc2ccccc2)c1 (relative stereo; 19a) .
9.60

###

- Measurement Notes: Half life in rat liver microsomes
- Format: ADME, microsome
- Experimental Parameters: liver microsomes
Measured Endpoint: half-life

Give me measured half-life, please, for this compound: C[N+]1(CC2CC2)CC[C@]23c4c5ccc(O)c4O[C@H]2C(=O)CC[C@@]3(O)[C@H]1C5 (stereo partly drawn) [METHYLNALTREXONE]
> 1.5 h

Give me measured half-life, please, for this compound: CC(C)(C)c1ccc(CN2[C@@H]3CC[C@@H]2CC(c2cccc(C(N)=O)c2)C3)cc1 (relative stereo; 28a)
> 1.5 h

Give me measured half-life, please, for this compound: C[C@H]1CN(C[C@H](Cc2ccccc2)C(=O)NCC(=O)O)CC[C@@]1(C)c1cccc(O)c1 [ALVIMOPAN]
> 1.5 h

###

I'd appreciate it if you could supply Intrinsic activity values for the items below.
- Tested On: Mu-type opioid receptor (Homo sapiens)
- Sequence (P35372 whole entry): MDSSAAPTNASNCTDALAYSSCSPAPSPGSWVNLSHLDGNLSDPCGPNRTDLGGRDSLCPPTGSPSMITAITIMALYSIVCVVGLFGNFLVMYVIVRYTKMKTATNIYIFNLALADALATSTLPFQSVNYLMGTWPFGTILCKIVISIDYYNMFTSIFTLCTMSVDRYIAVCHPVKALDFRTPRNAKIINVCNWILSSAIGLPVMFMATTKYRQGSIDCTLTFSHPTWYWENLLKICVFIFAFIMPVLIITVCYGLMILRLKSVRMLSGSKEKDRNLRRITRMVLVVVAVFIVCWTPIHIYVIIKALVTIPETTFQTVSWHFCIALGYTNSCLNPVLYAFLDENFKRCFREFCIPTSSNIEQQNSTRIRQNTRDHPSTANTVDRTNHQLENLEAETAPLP
- Measurement Notes: Intrinsic activity at recombinant human mu opioid receptor expressed in CHOK1 cells by [35S]GTPgammaS binding assay relative to DAMGO
- Format: functional, cell-based
Reply numerically in %, unit not repeated.

Give me measured Intrinsic activity, please, for this compound: C[N+]1(CC2CC2)CC[C@]23c4c5ccc(O)c4O[C@H]2C(=O)CC[C@@]3(O)[C@H]1C5 (stereo partly specified) [METHYLNALTREXONE]
24

Give me measured Intrinsic activity, please, for this compound: NC(=O)c1cccc(C2C[C@H]3CC[C@H](C2)N3CCCc2ccccc2)c1 (relative stereo; 24a)
24

Give me measured Intrinsic activity, please, for this compound: CC(C)(C)c1ccc(CN2[C@@H]3CC[C@@H]2CC(c2cccc(O)c2)C3)cc1 (relative stereo; 20a)
100

Give me measured Intrinsic activity, please, for this compound: Oc1cccc(C2C[C@H]3CC[C@H](C2)N3Cc2c(F)cccc2F)c1 (relative stereo; 18a)
36

Give me measured Intrinsic activity, please, for this compound: NC(=O)c1cccc(C2C[C@H]3CC[C@H](C2)N3Cc2c(F)cccc2F)c1 (relative stereo; 26a)
26

Give me measured Intrinsic activity, please, for this compound: NC(=O)c1cccc(C2C[C@H]3CC[C@H](C2)N3CCCCN2C(=O)c3ccccc3C2=O)c1 (relative stereo; 29b)
75
